melting point values by entry

For orientation, consider the following solved cases.
[[record]]
smiles = "CCN(CC)CCN1Cc2[nH]c(/C=C3\\C(=O)Nc4ccc(O)cc43)c(C)c2C1=O"
propertymeasured = "melting point"
recordedvalue = "240 to 242 °C"

[[record]]
smiles = "CCN(CC)CCN1Cc2[nH]c(/C=C3\\C(=O)Nc4ccc(S(=O)(=O)N(C)C)cc43)c(C)c2C1=O"
propertymeasured = "melting point"
recordedvalue = "244 to 247 °C"

[[record]]
smiles = "CCN(CC)CCN1Cc2[nH]c(/C=C3\\C(=O)Nc4ccc(OC)cc43)c(C)c2C1=O"
propertymeasured = "melting point"
recordedvalue = "214 to 216 °C"

[[record]]
smiles = "CCN(CC)CCN1Cc2[nH]c(/C=C3\\C(=O)Nc4ccc(S(N)(=O)=O)cc43)c(C)c2C1=O"
propertymeasured = "melting point"
recordedvalue = "252 to 255 °C"

[[record]]
smiles = "CCN(CC)CCN1Cc2[nH]c(/C=C3\\C(=O)Nc4ccc(S)cc43)c(C)c2C1=O"
propertymeasured = "melting point"
recordedvalue = "257 to 260 °C"


Lookup: Can you share its melting point? I mean this molecule: CCN(CC)CCN1Cc2[nH]c(/C=C3\C(=O)Nc4ccc(S(=O)(=O)Nc5ccc(C(F)(F)F)cc5)cc43)c(C)c2C1=O
Found: 231 to 234 °C

Lookup: Continue with CCN(CC)CCN1Cc2[nH]c(/C=C3\C(=O)Nc4ccc(C(F)(F)F)cc43)c(C)c2C1=O
Found: 212 to 215 °C

* * *

system: HUVEC cells; experiment: In-vitro VEGF-induced Matrigel tube formation assay; type: cell-based, human; details: Homo sapiens, HUVEC; VEGF 10 ng/ml, Matrigel, 6 h; read-out: IC50 Area (in vitro tube formation)
pIC50: −log10 of the molar value.
Outcome label depends on pIC50 relative to 6: at/above gives yes, below gives no.

Lookup: Assess whether reported pIC50 for CCN(CC)CCNC(=O)c1c(C)[nH]c(/C=C2\C(=O)Nc3ccc(F)cc32)c1C [Sunitinib, sunitinib, reference compound] sits at 6 or higher.
Found: no

Lookup: Continue with CCN(CC)CCN1Cc2[nH]c(/C=C3\C(=O)Nc4ccc(S)cc43)c(C)c2C1=O
Found: yes

Lookup: Continue with CCN(CC)CCN1Cc2[nH]c(/C=C3\C(=O)Nc4ccc(O)cc43)c(C)c2C1=O
Found: yes

* * *

propertyMeasured: melting point

For orientation, consider the following solved cases.
[[record]]
compound = "CCN(CC)CCN1Cc2[nH]c(/C=C3\\C(=O)Nc4ccc(S(=O)(=O)Nc5ccccc5)cc43)c(C)c2C1=O [Compound 8]"
propertymeasured = "melting point"
recordedvalue = "225 to 228 °C"

[[record]]
compound = "CCN(CC)CCN1Cc2[nH]c(/C=C3\\C(=O)Nc4ccc(NS(C)(=O)=O)cc43)c(C)c2C1=O [Compound 10]"
propertymeasured = "melting point"
recordedvalue = "245 to 247 °C"

[[record]]
compound = "CCN(CC)CCN1Cc2[nH]c(/C=C3\\C(=O)Nc4ccc([N+](=O)[O-])cc43)c(C)c2C1=O [Compound 12]"
propertymeasured = "melting point"
recordedvalue = "229 to 230 °C"


Lookup: Can you share its melting point? I mean this compound: CCN(CC)CCN1Cc2[nH]c(/C=C3\C(=O)Nc4ccc(S(=O)(=O)N(CC)CC)cc43)c(C)c2C1=O [Compound 6]
Found: 245 to 247 °C

* * *

target: PDGFRβ (Homo sapiens, UniProt P09619); assay: In-vitro kinase assay (HotSpot, 33P), PDGFRβ
Sequence (P09619 33-1106): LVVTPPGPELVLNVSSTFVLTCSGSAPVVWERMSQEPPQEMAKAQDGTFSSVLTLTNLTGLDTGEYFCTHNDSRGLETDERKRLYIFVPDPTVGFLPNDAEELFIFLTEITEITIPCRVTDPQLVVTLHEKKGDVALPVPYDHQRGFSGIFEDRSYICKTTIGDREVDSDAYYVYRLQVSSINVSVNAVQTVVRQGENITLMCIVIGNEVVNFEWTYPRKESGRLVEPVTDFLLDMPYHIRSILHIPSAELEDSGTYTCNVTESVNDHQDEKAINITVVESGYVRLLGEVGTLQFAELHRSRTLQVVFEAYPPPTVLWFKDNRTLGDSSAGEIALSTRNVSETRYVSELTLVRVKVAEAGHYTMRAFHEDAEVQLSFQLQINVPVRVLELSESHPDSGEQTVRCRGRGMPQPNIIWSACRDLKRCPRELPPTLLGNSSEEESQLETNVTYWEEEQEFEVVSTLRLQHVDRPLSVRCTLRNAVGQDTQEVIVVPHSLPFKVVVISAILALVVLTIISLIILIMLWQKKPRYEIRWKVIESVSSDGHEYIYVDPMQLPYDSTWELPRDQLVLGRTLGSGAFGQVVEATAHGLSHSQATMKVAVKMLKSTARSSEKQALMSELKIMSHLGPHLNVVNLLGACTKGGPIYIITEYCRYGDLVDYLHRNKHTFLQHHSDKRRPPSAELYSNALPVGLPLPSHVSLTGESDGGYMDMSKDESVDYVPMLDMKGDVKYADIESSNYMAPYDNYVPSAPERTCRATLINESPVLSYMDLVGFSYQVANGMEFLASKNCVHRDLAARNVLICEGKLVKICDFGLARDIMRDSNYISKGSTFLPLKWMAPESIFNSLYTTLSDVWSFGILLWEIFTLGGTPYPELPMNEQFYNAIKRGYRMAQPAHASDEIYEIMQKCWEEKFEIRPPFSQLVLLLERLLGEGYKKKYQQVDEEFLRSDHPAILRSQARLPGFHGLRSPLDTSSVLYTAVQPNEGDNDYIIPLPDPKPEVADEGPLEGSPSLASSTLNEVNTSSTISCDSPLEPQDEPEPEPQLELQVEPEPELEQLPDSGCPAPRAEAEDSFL
propertyMeasured: IC50 (nM)
Please respond with the number in nM and leave the unit unwritten.

[[record]]
smiles = "CCN(CC)CCN1Cc2[nH]c(/C=C3\\C(=O)Nc4ccc(S(=O)(=O)N(CCCl)CCCl)cc43)c(C)c2C1=O"
recordedvalue = 63.2

[[record]]
smiles = "CCN(CC)CCN1Cc2[nH]c(/C=C3\\C(=O)Nc4ccc(OC)cc43)c(C)c2C1=O"
recordedvalue = 76.2


Shift focus to the following entry.
Lookup: Request body: readout IC50, system PDGFRβ (Homo sapiens, UniProt P09619), query CCN(CC)CCN1Cc2[nH]c(/C=C3\C(=O)Nc4ccc(O)cc43)c(C)c2C1=O . Return the value.
Found: 28.5

* * *

tested on: 786-O cells; assay: Cell proliferation assay (MTT), 786-O; details: Homo sapiens, 786-0, 72 h, read-out: IC50 786-O
IC50 values by entry

For orientation, consider the following solved cases.
[[record]]
molecule = "CCN(CC)CCN1Cc2[nH]c(/C=C3\\C(=O)Nc4ccc(S(N)(=O)=O)cc43)c(C)c2C1=O [Compound 4]"
propertymeasured = "IC50"
recordedvalue = "> 10 µM"

[[record]]
molecule = "CCN(CC)CCN1Cc2[nH]c(/C=C3\\C(=O)Nc4ccc(S)cc43)c(C)c2C1=O [Compound 15]"
propertymeasured = "IC50"
recordedvalue = "> 10 µM"


Lookup: Can you share its IC50? I mean this molecule: CCN(CC)CCN1Cc2[nH]c(/C=C3\C(=O)Nc4ccc(O)cc43)c(C)c2C1=O [Compound 14]
Found: > 10 µM

Lookup: Continue with CCN(CC)CCN1Cc2[nH]c(/C=C3\C(=O)Nc4ccc(S(=O)(=O)N(CC)CC)cc43)c(C)c2C1=O [Compound 6]
Found: > 10 µM

Lookup: Continue with CCN(CC)CCN1Cc2[nH]c(/C=C3\C(=O)Nc4ccc([N+](=O)[O-])cc43)c(C)c2C1=O [Compound 12]
Found: > 10 µM

Lookup: Continue with CCN(CC)CCN1Cc2[nH]c(/C=C3\C(=O)Nc4ccc(S(=O)(=O)Nc5ccc(C(F)(F)F)cc5)cc43)c(C)c2C1=O [Compound 9]
Found: > 10 µM

Lookup: Continue with CCN(CC)CCN1Cc2[nH]c(/C=C3\C(=O)Nc4ccc(OC)cc43)c(C)c2C1=O [Compound 13]
Found: 7.86 µM

Lookup: Continue with CCN(CC)CCN1Cc2[nH]c(/C=C3\C(=O)Nc4ccc(S(=O)(=O)N(C)C)cc43)c(C)c2C1=O [Compound 5]
Found: > 10 µM

Lookup: Continue with CCN(CC)CCN1Cc2[nH]c(/C=C3\C(=O)Nc4ccc(S(=O)(=O)N(CCCl)CCCl)cc43)c(C)c2C1=O [Compound 7]
Found: > 10 µM

Lookup: Continue with CCN(CC)CCN1Cc2[nH]c(/C=C3\C(=O)Nc4ccc(C(F)(F)F)cc43)c(C)c2C1=O [Compound 11]
Found: 8.49 µM

* * *

inhibition at 1 µM values by entry
biological target: Aurora A (Homo sapiens, UniProt O14965); assay: In-vitro kinase assay (HotSpot, 33P), Aurora A; conditions: read-out: % inhibition of Aurora A at 1.0 μM, 1.0 μM compound; ATP 10.0 μM
Sequence (O14965 whole entry): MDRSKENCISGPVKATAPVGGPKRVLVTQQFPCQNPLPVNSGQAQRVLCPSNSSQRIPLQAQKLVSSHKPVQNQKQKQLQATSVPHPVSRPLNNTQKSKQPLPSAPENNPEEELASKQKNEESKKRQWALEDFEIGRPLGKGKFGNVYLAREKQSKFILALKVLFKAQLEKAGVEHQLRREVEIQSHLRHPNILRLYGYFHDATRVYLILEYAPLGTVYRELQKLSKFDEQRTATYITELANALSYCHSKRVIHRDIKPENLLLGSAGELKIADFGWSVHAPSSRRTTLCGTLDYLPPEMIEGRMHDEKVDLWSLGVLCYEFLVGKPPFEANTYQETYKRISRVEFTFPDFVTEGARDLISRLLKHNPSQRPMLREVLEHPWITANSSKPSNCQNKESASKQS
Please respond with the number in % and leave the unit unwritten.

Lookup: Can you share its inhibition at 1 µM? I mean this compound: CCN(CC)CCN1Cc2[nH]c(/C=C3\C(=O)Nc4ccc(OC)cc43)c(C)c2C1=O [Compound 13]
Found: 94.4

Lookup: Continue with CCN(CC)CCN1Cc2[nH]c(/C=C3\C(=O)Nc4ccc(S)cc43)c(C)c2C1=O [Compound 15]
Found: 93.6

Lookup: Continue with CCN(CC)CCN1Cc2[nH]c(/C=C3\C(=O)Nc4ccc(O)cc43)c(C)c2C1=O [Compound 14]
Found: 93.6

Lookup: Continue with CCN(CC)CCNC(=O)c1c(C)[nH]c(/C=C2\C(=O)Nc3ccc(F)cc32)c1C [Sunitinib, sunitinib, reference compound]
Found: 50.7

Lookup: Continue with CCN(CC)CCN1Cc2[nH]c(/C=C3\C(=O)Nc4ccc(S(=O)(=O)N(CCCl)CCCl)cc43)c(C)c2C1=O [Compound 7]
Found: 92.9

* * *

target: VEGFR-2 (Homo sapiens, UniProt P35968); assay: In-vitro kinase assay (HotSpot, 33P), VEGFR-2; conditions: read-out: % inhibition of VEGFR-2 at 80 nM
Sequence (P35968 20-1356): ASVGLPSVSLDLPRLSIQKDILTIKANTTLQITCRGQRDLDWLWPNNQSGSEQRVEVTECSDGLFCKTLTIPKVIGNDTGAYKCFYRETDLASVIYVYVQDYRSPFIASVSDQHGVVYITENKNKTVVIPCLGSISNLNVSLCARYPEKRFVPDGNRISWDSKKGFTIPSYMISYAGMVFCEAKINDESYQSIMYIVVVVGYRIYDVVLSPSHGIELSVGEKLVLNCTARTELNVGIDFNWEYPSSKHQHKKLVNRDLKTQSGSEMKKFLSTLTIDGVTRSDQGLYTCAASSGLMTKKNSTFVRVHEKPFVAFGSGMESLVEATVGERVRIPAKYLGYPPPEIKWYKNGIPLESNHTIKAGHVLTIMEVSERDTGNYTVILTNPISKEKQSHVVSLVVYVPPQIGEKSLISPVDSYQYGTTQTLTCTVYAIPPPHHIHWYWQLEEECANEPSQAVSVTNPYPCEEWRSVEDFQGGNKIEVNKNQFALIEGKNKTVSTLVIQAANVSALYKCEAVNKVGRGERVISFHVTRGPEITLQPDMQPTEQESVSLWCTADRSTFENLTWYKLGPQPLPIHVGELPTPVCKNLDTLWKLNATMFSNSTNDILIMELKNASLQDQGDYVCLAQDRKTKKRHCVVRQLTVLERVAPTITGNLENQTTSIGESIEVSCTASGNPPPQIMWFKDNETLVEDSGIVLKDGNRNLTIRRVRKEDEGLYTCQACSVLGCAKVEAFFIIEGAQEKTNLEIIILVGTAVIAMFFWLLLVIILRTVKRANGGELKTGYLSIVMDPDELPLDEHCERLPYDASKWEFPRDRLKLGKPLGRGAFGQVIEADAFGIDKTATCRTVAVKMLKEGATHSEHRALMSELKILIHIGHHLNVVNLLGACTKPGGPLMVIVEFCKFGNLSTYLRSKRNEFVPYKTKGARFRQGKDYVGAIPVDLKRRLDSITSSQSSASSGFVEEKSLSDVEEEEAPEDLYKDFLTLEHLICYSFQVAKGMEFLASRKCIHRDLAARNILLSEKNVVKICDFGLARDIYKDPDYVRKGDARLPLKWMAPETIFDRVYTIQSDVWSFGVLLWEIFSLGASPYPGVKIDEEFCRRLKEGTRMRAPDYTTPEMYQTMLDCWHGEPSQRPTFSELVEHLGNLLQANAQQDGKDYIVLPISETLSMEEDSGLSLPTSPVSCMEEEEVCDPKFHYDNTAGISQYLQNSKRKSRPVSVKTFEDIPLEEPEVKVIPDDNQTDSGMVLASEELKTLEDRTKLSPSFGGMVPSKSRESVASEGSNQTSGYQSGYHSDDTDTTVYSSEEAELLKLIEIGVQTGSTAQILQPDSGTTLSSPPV
propertyMeasured: inhibition at 0.08 µM (%)
Please respond with the number in % and leave the unit unwritten.

For orientation, consider the following solved cases.
[[record]]
compound = "CCN(CC)CCN1Cc2[nH]c(/C=C3\\C(=O)Nc4ccc(S(=O)(=O)Nc5ccc(C(F)(F)F)cc5)cc43)c(C)c2C1=O [Compound 9]"
propertymeasured = "inhibition at 0.08 µM"
recordedvalue = 0

[[record]]
compound = "CCN(CC)CCN1Cc2[nH]c(/C=C3\\C(=O)Nc4ccc(S(N)(=O)=O)cc43)c(C)c2C1=O [Compound 4]"
propertymeasured = "inhibition at 0.08 µM"
recordedvalue = 0

[[record]]
compound = "CCN(CC)CCN1Cc2[nH]c(/C=C3\\C(=O)Nc4ccc(S(=O)(=O)N(C)C)cc43)c(C)c2C1=O [Compound 5]"
propertymeasured = "inhibition at 0.08 µM"
recordedvalue = 20


Lookup: Request body: readout inhibition at 0.08 µM, system VEGFR-2 (Homo sapiens, UniProt P35968), query CCN(CC)CCN1Cc2[nH]c(/C=C3\C(=O)Nc4ccc(S)cc43)c(C)c2C1=O [Compound 15] . Return the value.
Found: 57
